Value source: paper PMC10096391

# target.of.assay: CDK9/cyclin T1 (CDK9T1) (Homo sapiens, UniProt P50750)
# Sequence (P50750 whole entry): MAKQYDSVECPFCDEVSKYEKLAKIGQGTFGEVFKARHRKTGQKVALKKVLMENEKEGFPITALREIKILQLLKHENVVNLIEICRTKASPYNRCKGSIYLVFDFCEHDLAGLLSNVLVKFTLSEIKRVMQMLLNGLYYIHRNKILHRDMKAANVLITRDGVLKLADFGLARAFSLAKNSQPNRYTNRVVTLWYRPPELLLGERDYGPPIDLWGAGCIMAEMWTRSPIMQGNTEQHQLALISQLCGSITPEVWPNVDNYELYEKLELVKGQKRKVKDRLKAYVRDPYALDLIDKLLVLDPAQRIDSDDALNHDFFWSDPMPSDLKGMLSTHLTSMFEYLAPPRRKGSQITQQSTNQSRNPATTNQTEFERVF
# Sequence (O60563 whole entry partner): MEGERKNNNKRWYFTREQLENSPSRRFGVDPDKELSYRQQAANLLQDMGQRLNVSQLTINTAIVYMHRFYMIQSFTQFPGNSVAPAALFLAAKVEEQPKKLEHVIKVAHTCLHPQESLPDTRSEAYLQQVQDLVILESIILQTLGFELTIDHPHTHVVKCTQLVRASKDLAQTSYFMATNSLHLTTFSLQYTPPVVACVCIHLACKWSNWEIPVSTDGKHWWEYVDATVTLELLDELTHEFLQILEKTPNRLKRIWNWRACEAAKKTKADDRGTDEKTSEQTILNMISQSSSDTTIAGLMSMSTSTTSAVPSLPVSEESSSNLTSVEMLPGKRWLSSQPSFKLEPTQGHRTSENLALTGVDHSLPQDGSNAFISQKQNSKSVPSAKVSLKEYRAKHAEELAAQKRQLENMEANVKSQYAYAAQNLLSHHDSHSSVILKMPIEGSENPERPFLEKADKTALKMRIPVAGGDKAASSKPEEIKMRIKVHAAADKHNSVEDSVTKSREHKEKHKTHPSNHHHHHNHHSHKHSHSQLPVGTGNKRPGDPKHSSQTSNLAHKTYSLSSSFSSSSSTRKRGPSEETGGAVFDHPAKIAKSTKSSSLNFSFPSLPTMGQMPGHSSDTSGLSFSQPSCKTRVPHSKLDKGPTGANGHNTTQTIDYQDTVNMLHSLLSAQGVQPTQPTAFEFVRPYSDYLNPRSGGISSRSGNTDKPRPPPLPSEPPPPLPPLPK
# method.description: ADP-Glo kinase assay, CDK9/cyclin T1
# Assay type: biochemical
# stated.conditions: apparent Ki from IC50, ADP-Glo
The entries below come with measured Ki values attached.

- smiles.representation: "Cn1cc(Nc2ncc(F)c(-c3cnn(C)c3)n2)cn1"
  value.units: "nM"
  Ki: 98
- smiles.representation: "Cn1cc(-c2nc(Nc3cn[nH]c3)ncc2F)cn1"
  value.units: "nM"
  Ki: 16
- smiles.representation: "Cc1nn(C)cc1-c1nc(Nc2cnn(C)c2)ncc1Cl"
  value.units: "nM"
  Ki: 62

----------
The entries below come with measured pKi values attached.
# target.of.assay: CDK5/p25 (CDK5p25) (Homo sapiens, UniProt Q00535)
# Sequence (Q00535 whole entry): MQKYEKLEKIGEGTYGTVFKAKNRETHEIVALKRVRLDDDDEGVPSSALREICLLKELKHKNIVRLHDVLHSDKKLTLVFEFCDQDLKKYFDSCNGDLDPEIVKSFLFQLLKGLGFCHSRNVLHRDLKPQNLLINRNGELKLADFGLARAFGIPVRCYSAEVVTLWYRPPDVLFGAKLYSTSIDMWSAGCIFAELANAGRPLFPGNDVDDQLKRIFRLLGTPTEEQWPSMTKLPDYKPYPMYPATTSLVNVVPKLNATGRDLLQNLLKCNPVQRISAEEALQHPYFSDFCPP
# Sequence (Q15078 99-307 partner limits assumed): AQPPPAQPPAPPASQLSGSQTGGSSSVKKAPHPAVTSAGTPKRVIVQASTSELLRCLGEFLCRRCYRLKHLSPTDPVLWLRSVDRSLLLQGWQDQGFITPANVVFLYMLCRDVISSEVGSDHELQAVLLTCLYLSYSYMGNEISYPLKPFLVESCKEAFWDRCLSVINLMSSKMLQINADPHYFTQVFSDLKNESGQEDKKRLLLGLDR
# method.description: ADP-Glo kinase assay, CDK5/p25
# Type: biochemical
# stated.conditions: apparent Ki from IC50, ADP-Glo
pKi: −log10 of the molar value.
measurement.type: pKi

- smiles.representation: "Cn1cc(-c2nc(Nc3cn[nH]c3)ncc2F)cn1"
  observed.value: 8.52
- smiles.representation: "Cc1nn(C)cc1-c1nc(Nc2cnn(C)c2)ncc1Cl"
  observed.value: 7.46
- smiles.representation: "Cn1cc(Nc2ncc(Cl)c(-c3cnn(CCN4CCOCC4)c3)n2)cn1"
  observed.value: 6.90
- smiles.representation: "Cn1cc(-c2nc(Nc3nccs3)ncc2Cl)cn1"
  observed.value: 6.75
